# Protocol Details: Phase 1 crossover PK study: oral solution fed/fasted vs IV infusion in healthy subjects
# Assay type: in vivo, human
# Recorded Conditions: plasma, other: oral solution (fed and fasted) and IV infusion, 3.3 mg/kg; human, individual subjects, across treatments; read-out: quantifiable plasma concentrations at 96 hours post-dose
Metric: concentration at 96 h

Data request: // query concentration at 96 h value for entry Cn1cc(C2=C(c3coc4ccc(F)cc34)C(=O)NC2=O)c2cc3c(cc21)OCO3
Data returned: 0.273 to 7.18 ng/mL

====

# Protocol Details: Phase 1 crossover PK study: oral solution fed/fasted vs IV infusion in healthy subjects
# Format: in vivo, human
# Recorded Conditions: human, plasma, po, 3.3 mg/kg, oral 3.3 mg/kg fed state, human plasma; read-out: CL/F GMean (converted)
Metric: CL/F (mL/min/kg)
I only need the number, in mL/min/kg, no unit after it.

Data request: I am curious: what CL/F value has been reported for Cn1cc(C2=C(c3coc4ccc(F)cc34)C(=O)NC2=O)c2cc3c(cc21)OCO3 ?
Data returned: 12.7

====

# Protocol Details: Phase 1 crossover PK study: oral solution fed/fasted vs IV infusion in healthy subjects
# Assay type: in vivo, human
# Recorded Conditions: human, plasma, iv, 3.3 mg/kg, IV infusion 3.3 mg/kg, human plasma; read-out: t1/2 Arithmetic Mean (converted)
Metric: half-life
Please answer using the number first and the unit second.

Data request: Which half-life is listed for Cn1cc(C2=C(c3coc4ccc(F)cc34)C(=O)NC2=O)c2cc3c(cc21)OCO3 ?
Data returned: 19.6 h

====

# Protocol Details: Phase 1 crossover PK study: oral solution fed/fasted vs IV infusion in healthy subjects
# Assay type: in vivo, human
# Recorded Conditions: human, plasma, other: IV or oral, 3.3 mg/kg, human; read-out: terminal elimination half-life, rapid clearance subset of subjects
Metric: half-life

Data request: Need half-life of Cn1cc(C2=C(c3coc4ccc(F)cc34)C(=O)NC2=O)c2cc3c(cc21)OCO3 , thanks.
Data returned: 6 to 11 h

====

# Protocol Details: Phase 1 crossover PK study: oral solution fed/fasted vs IV infusion in healthy subjects
# Type: in vivo, human
# Recorded Conditions: human, plasma, po, 3.3 mg/kg, oral 3.3 mg/kg fed state, human plasma; read-out: t1/2 Arithmetic Mean (converted)
# Procedure: This pharmacokinetic (PK) study in healthy subjects was conducted to characterize and compare the PK parameters in plasma following a single intravenous (IV) dose of Elraglusib Injection, Elraglusib Oral Solution after fasting, and Elraglusib Oral Solution after a high-fat meal (fed). […] PK parameters including AUC, Cmax, Tmax, and t1/2 were analyzed by standard non-compartmental analysis (NCA) methods following each of the elraglusib doses. […]
Metric: half-life (h)
Entry rule: numbers only, all in h.

Data request: Fill in the blank: the reported half-life of Cn1cc(C2=C(c3coc4ccc(F)cc34)C(=O)NC2=O)c2cc3c(cc21)OCO3 is ____.
Data returned: 20.8

====

# Protocol Details: Phase 1 crossover PK study: oral solution fed/fasted vs IV infusion in healthy subjects
# Type: in vivo, human
# Recorded Conditions: human, plasma, po, 3.3 mg/kg, human, subject 113, oral fed state; read-out: longest terminal half-life (converted)
Metric: half-life

Data request: So what does the record say about half-life for Cn1cc(C2=C(c3coc4ccc(F)cc34)C(=O)NC2=O)c2cc3c(cc21)OCO3 ?
Data returned: 50.5 h

====

# Protocol Details: Phase 1 crossover PK study: oral solution fed/fasted vs IV infusion in healthy subjects
# Type: in vivo, human
# Recorded Conditions: human, plasma, iv, 3.3 mg/kg, IV infusion 3.3 mg/kg, human plasma; read-out: AUC48 GMean
Metric: AUC (ng·h/mL)
Output spec: scalar in ng·h/mL, unitless text.

Data request: What does the record list as AUC for Cn1cc(C2=C(c3coc4ccc(F)cc34)C(=O)NC2=O)c2cc3c(cc21)OCO3 [elraglusib] ?
Data returned: 7450

====

# Protocol Details: Phase 1 crossover PK study: oral solution fed/fasted vs IV infusion in healthy subjects
# Type: in vivo, human
# Recorded Conditions: human, plasma, iv, 3.3 mg/kg, IV infusion 3.3 mg/kg, human plasma; read-out: Tmax GMean
Metric: Tmax (h)
Field format: number, assumed h, no unit text.

Data request: Give its Tmax value. Item: Cn1cc(C2=C(c3coc4ccc(F)cc34)C(=O)NC2=O)c2cc3c(cc21)OCO3
Data returned: 1.13

====

# Protocol Details: Phase 1 crossover PK study: oral solution fed/fasted vs IV infusion in healthy subjects
# Type: in vivo, human
# Recorded Conditions: human, plasma, iv, 3.3 mg/kg, IV infusion 3.3 mg/kg, human plasma; read-out: AUC∞ GMean
Metric: AUC(0-inf)

Data request: Record request: AUC(0-inf) value, item Cn1cc(C2=C(c3coc4ccc(F)cc34)C(=O)NC2=O)c2cc3c(cc21)OCO3 [elraglusib]
Data returned: 7.9 µg·h/mL

====

# Protocol Details: Phase 1 crossover PK study: oral solution fed/fasted vs IV infusion in healthy subjects
# Assay type: in vivo, human
# Recorded Conditions: human, plasma, 3.3 mg/kg, human; read-out: terminal elimination half-life, rapid clearance subset of subjects
Metric: half-life

Data request: What does the data say about its half-life? Entry: Cn1cc(C2=C(c3coc4ccc(F)cc34)C(=O)NC2=O)c2cc3c(cc21)OCO3 [elraglusib]
Data returned: 7 to 11 h

====

# Protocol Details: Phase 1 crossover PK study: oral solution fed/fasted vs IV infusion in healthy subjects
# Type: in vivo, human
# Recorded Conditions: human, plasma, po, 3.3 mg/kg, oral 3.3 mg/kg fasted state, human plasma; read-out: AUC96 Median
Metric: AUC (ng·h/mL)
Please give a number only; it is taken to be in ng·h/mL.

Data request: For Cn1cc(C2=C(c3coc4ccc(F)cc34)C(=O)NC2=O)c2cc3c(cc21)OCO3 , what is its reported AUC?
Data returned: 1560

====

# Protocol Details: in vivo
# Design: species or system Beagle dogs
# Recorded Conditions: male, Beagle, dog, iv, 20 mg/kg
Metric: AUC (ng·h/mL)
Write down the numeric answer in ng·h/mL and omit the unit.

Data request: Which AUC value belongs to Cn1cc(C2=C(c3coc4ccc(F)cc34)C(=O)NC2=O)c2cc3c(cc21)OCO3 ?
Data returned: 68900

====

# Protocol Details: Phase 1 crossover PK study: oral solution fed/fasted vs IV infusion in healthy subjects
# Type: in vivo, human
# Recorded Conditions: human, plasma, po, 3.3 mg/kg, oral 3.3 mg/kg fasted state, human plasma; read-out: AUC72 Arithmetic Mean
Metric: AUC (ng·h/mL)
Express your answer in ng·h/mL, writing the number without its unit.

Data request: Request the reported AUC associated with Cn1cc(C2=C(c3coc4ccc(F)cc34)C(=O)NC2=O)c2cc3c(cc21)OCO3
Data returned: 1740

====

# Protocol Details: Phase 1 crossover PK study: oral solution fed/fasted vs IV infusion in healthy subjects
# Type: in vivo, human
# Recorded Conditions: human, plasma, iv, 3.3 mg/kg, IV infusion 3.3 mg/kg, human plasma; read-out: Cmax Arithmetic Mean
Metric: Cmax

Data request: Recorded Cmax for Cn1cc(C2=C(c3coc4ccc(F)cc34)C(=O)NC2=O)c2cc3c(cc21)OCO3 [elraglusib] , please?
Data returned: 1600 ng/mL

====

# Protocol Details: Phase 1 crossover PK study: oral solution fed/fasted vs IV infusion in healthy subjects
# Assay type: in vivo, human
# Recorded Conditions: human, plasma, po, 3.3 mg/kg, oral 3.3 mg/kg fed state, human plasma; read-out: AUC48 Arithmetic Mean
Metric: AUC (ng·h/mL)
Hi! Could you send only the number? It should be in ng·h/mL, unit omitted.

Data request: What value of measured AUC is listed for Cn1cc(C2=C(c3coc4ccc(F)cc34)C(=O)NC2=O)c2cc3c(cc21)OCO3 ?
Data returned: 4550

====

# Protocol Details: Phase 1 crossover PK study: oral solution fed/fasted vs IV infusion in healthy subjects
# Format: in vivo, human
# Recorded Conditions: human, plasma, po, 3.3 mg/kg, oral 3.3 mg/kg fed state, human plasma; read-out: AUC72 GMean
Metric: AUC (ng·h/mL)
A number alone suffices; assume ng·h/mL.

Data request: Please look up its AUC: Cn1cc(C2=C(c3coc4ccc(F)cc34)C(=O)NC2=O)c2cc3c(cc21)OCO3 [elraglusib]
Data returned: 4160

====

# Protocol Details: in vivo
# Design: species or system Beagle dogs
# Recorded Conditions: male, Beagle, dog, iv, 20 mg/kg, Cmax
Metric: Cmax

Data request: Entry Cn1cc(C2=C(c3coc4ccc(F)cc34)C(=O)NC2=O)c2cc3c(cc21)OCO3 : reported Cmax = ?
Data returned: 12800 ng/mL

====

# Protocol Details: Phase 1 crossover PK study: oral solution fed/fasted vs IV infusion in healthy subjects
# Type: in vivo, human
# Recorded Conditions: human, plasma, iv, 3.3 mg/kg, IV infusion 3.3 mg/kg, human plasma; read-out: AUC∞ Arithmetic Mean
Metric: AUC(0-inf) (ng·h/mL)
The response must be a number in ng·h/mL with no trailing unit.

Data request: For the molecule shown here, Cn1cc(C2=C(c3coc4ccc(F)cc34)C(=O)NC2=O)c2cc3c(cc21)OCO3 , give the reported AUC(0-inf).
Data returned: 8070
